- test-description: Luminescence activity of ZZ-fused KAZ mutants in crude enzyme solutions
- Format: biochemical
- stated-conditions: Table 4; ZZ-fused (pCold-ZZ-P-); 1 μL crude enzyme solution, 1 mM DTT; 1 μg coelenterazine
Listing of entries alongside the reported Relative Luminescence Activity (Imax).
Could you respond with only the numeric value?

Field: example entries. Status: answers known.
KAZ-F68D: KAZ with single amino acid substitution F68D (protein) FTLADFVGDWQQTAGYNQDQVLEQGGLSSLFQALGVSVTPIQKVVLSGENGLKADIHVIIPYEGLSGDQMGLIEMIFKVVYPVDDHHFKIILHYGTLVIDGVTPNMIDYFGRPYPGIAVFDGKQITVTGTLWNGNKIYDERLINPDGSLLFRVTINGVTGWRLCENILA :: 2.7
KAZ-K43R: KAZ with single amino acid substitution K43R (protein) FTLADFVGDWQQTAGYNQDQVLEQGGLSSLFQALGVSVTPIQRVVLSGENGLKADIHVIIPYEGLSGFQMGLIEMIFKVVYPVDDHHFKIILHYGTLVIDGVTPNMIDYFGRPYPGIAVFDGKQITVTGTLWNGNKIYDERLINPDGSLLFRVTINGVTGWRLCENILA :: 0.6
KAZ-P115E: KAZ with single amino acid substitution P115E (protein) FTLADFVGDWQQTAGYNQDQVLEQGGLSSLFQALGVSVTPIQKVVLSGENGLKADIHVIIPYEGLSGFQMGLIEMIFKVVYPVDDHHFKIILHYGTLVIDGVTPNMIDYFGRPYEGIAVFDGKQITVTGTLWNGNKIYDERLINPDGSLLFRVTINGVTGWRLCENILA :: 4.5

Read the next record carefully.
q: Entry under review: KAZ: wild 19 kDa catalytic protein of Oplophorus luciferase (19kOLase), amino acid sequence SEQ ID NO: 2 (protein, listed as Oplophorus gracilirostris) FTLADFVGDWQQTAGYNQDQVLEQGGLSSLFQALGVSVTPIQKVVLSGENGLKADIHVIIPYEGLSGFQMGLIEMIFKVVYPVDDHHFKIILHYGTLVIDGVTPNMIDYFGRPYPGIAVFDGKQITVTGTLWNGNKIYDERLINPDGSLLFRVTINGVTGWRLCENILA . Reported Relative Luminescence Activity (Imax)?
a: 1.0
